# studyTarget: UniProt:P04626
# Sequence (P04626 whole entry): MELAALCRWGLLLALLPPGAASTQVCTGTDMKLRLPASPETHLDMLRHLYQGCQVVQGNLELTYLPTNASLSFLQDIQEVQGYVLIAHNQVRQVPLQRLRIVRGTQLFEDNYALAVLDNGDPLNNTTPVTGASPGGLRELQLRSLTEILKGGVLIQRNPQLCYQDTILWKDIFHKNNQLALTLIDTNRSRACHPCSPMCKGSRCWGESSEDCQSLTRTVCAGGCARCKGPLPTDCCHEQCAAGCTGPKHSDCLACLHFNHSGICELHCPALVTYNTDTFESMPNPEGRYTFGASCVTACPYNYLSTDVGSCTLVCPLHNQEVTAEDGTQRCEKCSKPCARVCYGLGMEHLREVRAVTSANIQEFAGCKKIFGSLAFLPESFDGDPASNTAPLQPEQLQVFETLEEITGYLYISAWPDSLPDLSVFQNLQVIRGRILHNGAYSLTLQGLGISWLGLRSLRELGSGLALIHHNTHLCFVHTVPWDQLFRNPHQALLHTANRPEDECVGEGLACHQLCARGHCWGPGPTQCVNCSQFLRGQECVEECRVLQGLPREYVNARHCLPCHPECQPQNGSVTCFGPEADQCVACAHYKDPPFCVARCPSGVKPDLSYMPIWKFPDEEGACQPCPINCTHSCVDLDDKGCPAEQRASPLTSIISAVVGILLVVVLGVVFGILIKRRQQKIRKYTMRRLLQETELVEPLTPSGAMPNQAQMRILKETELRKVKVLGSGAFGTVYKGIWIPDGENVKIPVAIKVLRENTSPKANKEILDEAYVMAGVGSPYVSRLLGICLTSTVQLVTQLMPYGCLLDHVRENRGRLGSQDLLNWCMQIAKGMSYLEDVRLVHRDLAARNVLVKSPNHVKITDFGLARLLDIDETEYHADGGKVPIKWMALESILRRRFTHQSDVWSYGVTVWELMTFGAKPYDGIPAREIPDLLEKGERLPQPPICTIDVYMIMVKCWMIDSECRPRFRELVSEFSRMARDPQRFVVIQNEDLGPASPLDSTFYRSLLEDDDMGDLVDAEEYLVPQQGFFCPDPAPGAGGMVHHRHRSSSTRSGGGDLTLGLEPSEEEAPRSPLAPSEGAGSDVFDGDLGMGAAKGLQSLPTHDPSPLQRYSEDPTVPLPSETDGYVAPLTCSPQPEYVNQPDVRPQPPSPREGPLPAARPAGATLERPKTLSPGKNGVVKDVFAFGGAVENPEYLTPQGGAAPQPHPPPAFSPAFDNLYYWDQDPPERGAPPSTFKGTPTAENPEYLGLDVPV
# procedureText: Inhibition of HER2 at 1 uM
testReadout: inhibition (%)
Report only the number, with the unit % understood.

Nc1ccc(NC(=O)Nc2cccc3c2C(=O)c2c-3n[nH]c2-c2ccc(O)c(O)c2)cc1: 3
COc1ccc(-c2[nH]nc3c2C(=O)c2c(NC(=O)Nc4ccc(O)cc4)cccc2-3)cc1: 8
Nc1ccc(NC(=O)Nc2cccc3c2C(=O)c2c-3n[nH]c2-c2ccc3c(c2)OCO3)cc1: 28
O=C(Nc1ccc(O)cc1)Nc1cccc2c1C(=O)c1c-2n[nH]c1-c1ccc2c(c1)OCO2: 2
COc1ccc(-c2[nH]nc3c2C(=O)c2c(NC(=O)Nc4ccc(N)cc4)cccc2-3)cc1: 6

With those in mind, consider the next compound.
State, in one line, measured inhibition of Nc1ccc(NC(=O)Nc2cccc3c2C(=O)c2c-3n[nH]c2-c2ccc(O)cc2)cc1 7
